Measured values drawn from ChEMBL document CHEMBL5380839 for this set.

Target: Integrin alpha4/beta7 complex (Homo sapiens, UniProt P26010+P48169)
Sequence (P48169 whole entry): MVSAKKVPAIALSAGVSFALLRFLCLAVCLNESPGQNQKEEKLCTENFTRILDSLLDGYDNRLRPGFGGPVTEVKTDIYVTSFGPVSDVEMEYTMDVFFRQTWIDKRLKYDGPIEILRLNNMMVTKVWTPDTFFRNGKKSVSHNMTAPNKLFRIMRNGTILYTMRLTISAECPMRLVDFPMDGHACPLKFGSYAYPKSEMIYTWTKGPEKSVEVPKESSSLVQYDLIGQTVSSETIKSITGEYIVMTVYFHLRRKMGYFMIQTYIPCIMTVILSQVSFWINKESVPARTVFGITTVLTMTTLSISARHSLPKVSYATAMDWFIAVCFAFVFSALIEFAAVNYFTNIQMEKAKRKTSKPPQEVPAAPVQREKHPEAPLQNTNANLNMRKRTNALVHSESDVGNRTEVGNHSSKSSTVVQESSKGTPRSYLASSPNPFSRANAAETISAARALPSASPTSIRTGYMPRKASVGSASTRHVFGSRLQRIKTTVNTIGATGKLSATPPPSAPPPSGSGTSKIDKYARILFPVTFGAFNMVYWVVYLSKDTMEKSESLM
Sequence (P26010 whole entry): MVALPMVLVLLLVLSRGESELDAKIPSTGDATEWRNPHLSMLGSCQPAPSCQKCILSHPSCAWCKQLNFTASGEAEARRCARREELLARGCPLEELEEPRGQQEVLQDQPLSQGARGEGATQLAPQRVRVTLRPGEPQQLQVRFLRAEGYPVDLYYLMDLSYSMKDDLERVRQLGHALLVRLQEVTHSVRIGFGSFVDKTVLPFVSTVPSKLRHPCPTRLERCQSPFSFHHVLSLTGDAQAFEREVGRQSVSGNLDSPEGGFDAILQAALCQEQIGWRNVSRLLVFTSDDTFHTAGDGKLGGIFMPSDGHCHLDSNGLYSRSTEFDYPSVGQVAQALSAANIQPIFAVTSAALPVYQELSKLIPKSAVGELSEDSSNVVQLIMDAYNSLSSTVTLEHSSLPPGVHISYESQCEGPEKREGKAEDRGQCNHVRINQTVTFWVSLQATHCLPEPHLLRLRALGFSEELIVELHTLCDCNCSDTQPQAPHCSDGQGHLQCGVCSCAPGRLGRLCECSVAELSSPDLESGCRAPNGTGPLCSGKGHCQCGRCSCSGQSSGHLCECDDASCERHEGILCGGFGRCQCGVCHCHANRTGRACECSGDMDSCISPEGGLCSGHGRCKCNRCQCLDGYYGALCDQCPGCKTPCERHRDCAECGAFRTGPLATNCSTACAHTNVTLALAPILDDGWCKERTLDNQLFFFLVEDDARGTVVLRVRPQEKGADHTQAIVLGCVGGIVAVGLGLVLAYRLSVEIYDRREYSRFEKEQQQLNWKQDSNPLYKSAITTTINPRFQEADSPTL
Assay: Binding affinity to alpha4beta7 integrin receptor (unknown origin) preincubated for 30 mins followed by 30 mins incubation in mucosal vascular add-ressin cell adhesion molecule 1 coated wells by fluorescence based assay
Starred links: 1 amine or outer side, 2 acyl side, 3 side chain; linkers in the order of their positions; H or OH if unused. Positions of bridges follow the written chain, without caps; N, C: chain ends. Non-standard residues stand in square brackets, D forms with d. Residues, ends and D or L forms follow the SMILES beside them. Groups on a side chain read outwards from the residue. *: point of attachment. Phe(4-NH2) = Nc1ccc(C[C@H](N)C(=O)O)cc1; X1 = O=C(Cc1ccc(N[*:1])cc1)[*:2]; NH(2-Me-phenyl) = Cc1ccccc1N*; CO = O=C([*:1])[*:2]
Readout kind: IC50

Cc1ccccc1NC(=O)Nc1ccc(C[C@@H]2NC(=O)C[C@@H](C(=O)O)NC(=O)[C@H](C(C)C)NC(=O)[C@H](C)NC(=O)[C@H](Cc3ccccc3)NC2=O)cc1 ([Phe(4-NH2)]([CO-NH(2-Me-phenyl)])FAVD-OH; lactam N-5); > 5 µM

Shift focus to the following entry.
Inquiry: Form field: reported IC50 of Cc1ccccc1NC(=O)Nc1ccc(CC(=O)N[C@@H](CC(C)C)C(=O)N[C@@H](CC(=O)O)C(=O)N[C@H](C(=O)N2CCC[C@H]2C(=O)O)C(C)C)cc1 ({NH(2-Me-phenyl)-CO}-[X1]LDVP-OH)
Reply text: > 1 µM

---

Each entry below lists one item and its recorded EC50 value.
Molecular target: Integrin alpha-4/beta-1 (Homo sapiens, UniProt P05556+P13612)
Sequence (P05556 whole entry): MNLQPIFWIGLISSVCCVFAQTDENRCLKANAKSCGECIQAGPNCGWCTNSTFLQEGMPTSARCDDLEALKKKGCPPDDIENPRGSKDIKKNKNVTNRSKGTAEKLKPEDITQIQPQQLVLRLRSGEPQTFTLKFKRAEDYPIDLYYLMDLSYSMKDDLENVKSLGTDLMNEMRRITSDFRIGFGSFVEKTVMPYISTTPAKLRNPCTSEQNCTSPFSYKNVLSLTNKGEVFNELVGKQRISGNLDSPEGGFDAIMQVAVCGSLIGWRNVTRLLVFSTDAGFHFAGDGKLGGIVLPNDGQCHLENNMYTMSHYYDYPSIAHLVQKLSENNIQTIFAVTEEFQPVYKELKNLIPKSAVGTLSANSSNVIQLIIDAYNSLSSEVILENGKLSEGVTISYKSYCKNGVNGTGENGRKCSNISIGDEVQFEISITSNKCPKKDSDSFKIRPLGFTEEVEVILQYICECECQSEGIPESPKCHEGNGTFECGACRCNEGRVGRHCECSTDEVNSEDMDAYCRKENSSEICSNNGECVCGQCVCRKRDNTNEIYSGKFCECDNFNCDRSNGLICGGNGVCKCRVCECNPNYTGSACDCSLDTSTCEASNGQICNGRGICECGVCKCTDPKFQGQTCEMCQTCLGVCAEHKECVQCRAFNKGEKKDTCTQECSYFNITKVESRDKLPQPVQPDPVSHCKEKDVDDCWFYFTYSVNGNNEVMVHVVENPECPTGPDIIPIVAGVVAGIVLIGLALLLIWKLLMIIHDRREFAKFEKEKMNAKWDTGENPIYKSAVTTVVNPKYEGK
Sequence (P13612 whole entry): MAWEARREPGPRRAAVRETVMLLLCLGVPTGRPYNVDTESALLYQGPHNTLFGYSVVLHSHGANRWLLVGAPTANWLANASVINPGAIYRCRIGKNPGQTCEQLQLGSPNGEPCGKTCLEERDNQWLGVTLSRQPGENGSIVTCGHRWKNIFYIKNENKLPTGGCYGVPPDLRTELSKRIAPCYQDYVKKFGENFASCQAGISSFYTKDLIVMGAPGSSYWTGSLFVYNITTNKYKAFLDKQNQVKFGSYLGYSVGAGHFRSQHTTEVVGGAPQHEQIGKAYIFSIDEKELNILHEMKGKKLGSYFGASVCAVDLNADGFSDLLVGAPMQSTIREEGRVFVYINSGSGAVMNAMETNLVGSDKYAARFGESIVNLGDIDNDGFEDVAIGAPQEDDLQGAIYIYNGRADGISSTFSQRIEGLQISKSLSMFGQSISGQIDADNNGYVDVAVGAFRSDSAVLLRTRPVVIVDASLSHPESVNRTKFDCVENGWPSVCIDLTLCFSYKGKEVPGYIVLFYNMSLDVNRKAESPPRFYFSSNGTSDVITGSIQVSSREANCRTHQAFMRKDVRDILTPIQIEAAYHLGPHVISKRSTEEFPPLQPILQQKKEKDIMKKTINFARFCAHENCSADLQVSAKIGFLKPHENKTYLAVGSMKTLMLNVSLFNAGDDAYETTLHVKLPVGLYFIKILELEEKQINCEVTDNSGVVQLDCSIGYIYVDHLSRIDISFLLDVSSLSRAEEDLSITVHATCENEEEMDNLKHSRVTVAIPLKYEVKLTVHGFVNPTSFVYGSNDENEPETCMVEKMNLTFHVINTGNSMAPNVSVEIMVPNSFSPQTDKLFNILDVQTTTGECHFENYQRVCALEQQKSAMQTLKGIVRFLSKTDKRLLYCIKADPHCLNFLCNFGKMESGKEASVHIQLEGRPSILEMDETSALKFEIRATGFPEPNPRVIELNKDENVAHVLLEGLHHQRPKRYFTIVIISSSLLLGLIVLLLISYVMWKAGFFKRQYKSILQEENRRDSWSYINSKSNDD
Assay: Agonist activity at alpha4beta1 integrin receptor in human Jurkat E6.1 cells assessed as inhibition of fibronectin-induced cell adhesion pre-incubated for 30 mins followed by 30 mins incubation in fibronectin coated wells by fluorescence plate reader assay
Starred links: 1 amine or outer side, 2 acyl side, 3 side chain; linkers in the order of their positions; H or OH if unused. Positions of bridges follow the written chain, without caps; N, C: chain ends. Non-standard residues stand in square brackets, D forms with d. Residues, ends and D or L forms follow the SMILES beside them. Groups on a side chain read outwards from the residue. *: point of attachment. dPhe(4-NH2) = Nc1ccc(C[C@@H](N)C(=O)O)cc1; Phe(4-NH2) = Nc1ccc(C[C@H](N)C(=O)O)cc1; NH(2-Me-phenyl) = Cc1ccccc1N*; Phg = N[C@H](C(=O)O)c1ccccc1; d(β3hA) = C[C@@H](N)CC(=O)O; CO = O=C([*:1])[*:2]; NHPr = CCCN*

Cc1ccccc1NC(=O)Nc1ccc(C[C@@H]2NC(=O)C[C@@H](C)NC(=O)[C@H](C(C)C)NC(=O)[C@H](CC(=O)O)NC(=O)[C@H](CC(C)C)NC2=O)cc1 (cyclo([Phe(4-NH2)]([CO-NH(2-Me-phenyl)])LDV[d(β3hA)])); > 5 µM
Cc1ccccc1NC(=O)Nc1ccc(C[C@H]2NC(=O)C[C@@H](C(=O)O)NC(=O)[C@H](c3ccccc3)NC(=O)[C@H](CC(=O)O)NC(=O)[C@H](CC(C)C)NC2=O)cc1 ([dPhe(4-NH2)]([CO-NH(2-Me-phenyl)])LD[Phg]D-OH; lactam N-5); > 5 µM
CCCNC(=O)[C@@H]1CC(=O)N[C@@H](Cc2ccc(NC(=O)Nc3ccccc3C)cc2)C(=O)N[C@@H](CC(C)C)C(=O)N[C@@H](CC(=O)O)C(=O)N[C@@H](C(C)C)C(=O)N1 ([Phe(4-NH2)]([CO-NH(2-Me-phenyl)])LDVD-NHPr; lactam N-5); > 5 µM
Cc1ccccc1NC(=O)Nc1ccc(C[C@H]2NC(=O)C[C@@H](C)NC(=O)[C@H](C(C)C)NC(=O)[C@H](CC(=O)O)NC(=O)[C@H](CC(C)C)NC2=O)cc1 (cyclo(DV[d(β3hA)][dPhe(4-NH2)]([CO-NH(2-Me-phenyl)])L)); > 5 µM
Cc1ccccc1NC(=O)Nc1ccc(C[C@@H]2NC(=O)C[C@@H](C(=O)O)NC(=O)[C@H](C(C)C)NC(=O)[C@H](CC(=O)O)NC(=O)[C@H](Cc3ccccc3)NC2=O)cc1 ([Phe(4-NH2)]([CO-NH(2-Me-phenyl)])FDVD-OH; lactam N-5); > 5 µM

Now, please, on to the next compound.
Inquiry: Recall the recorded EC50 for Cc1ccccc1NC(=O)Nc1ccc(C[C@@H]2NC(=O)C[C@@H](C(=O)O)NC(=O)[C@H](C(C)C)NC(=O)[C@H](C)NC(=O)[C@H](Cc3ccccc3)NC2=O)cc1 ([Phe(4-NH2)]([CO-NH(2-Me-phenyl)])FAVD-OH; lactam N-5) with Integrin alpha-4/beta-1 (Homo sapiens, UniProt P05556+P13612) and state it.
Reply text: 1.06 µM
